# target_entity: PLK1 (human) (UniProt P53350)
# Sequence (P53350 whole entry, looked up): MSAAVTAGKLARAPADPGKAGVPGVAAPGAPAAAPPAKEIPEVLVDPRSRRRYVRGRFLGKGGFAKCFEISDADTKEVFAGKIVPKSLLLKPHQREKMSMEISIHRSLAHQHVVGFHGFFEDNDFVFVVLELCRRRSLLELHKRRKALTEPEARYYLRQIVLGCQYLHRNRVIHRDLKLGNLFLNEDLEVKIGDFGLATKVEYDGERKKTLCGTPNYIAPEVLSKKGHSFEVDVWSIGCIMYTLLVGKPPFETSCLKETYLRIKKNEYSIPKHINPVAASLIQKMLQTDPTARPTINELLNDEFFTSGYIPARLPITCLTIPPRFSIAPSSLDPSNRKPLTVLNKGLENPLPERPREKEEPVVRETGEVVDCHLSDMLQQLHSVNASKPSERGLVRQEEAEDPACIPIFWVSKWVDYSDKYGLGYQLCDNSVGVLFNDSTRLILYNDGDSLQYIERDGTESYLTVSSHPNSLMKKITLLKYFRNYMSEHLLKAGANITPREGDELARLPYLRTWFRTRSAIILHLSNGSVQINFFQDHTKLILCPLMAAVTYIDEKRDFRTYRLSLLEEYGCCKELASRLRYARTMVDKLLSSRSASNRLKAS
# measurement_protocol: radiometric filter-binding kinase assay
# condition_info: compound 0.1 µM
This section presents compounds with their documented residual activity values.

>  <compound>
CCn1c(-c2nonc2N)nc2cncc(CNC3CCNCC3)c21

>  <target_entity>
PLK1 (human) (UniProt P53350)

>  <residual activity / %>
83

$$$$
>  <compound>
Cn1c(=O)c2c(ncn2C)n(C)c1=O

>  <target_entity>
PLK1 (human) (UniProt P53350)

>  <residual activity / %>
92

$$$$
>  <compound>
O=C(N[C@@H](COc1ccc2[nH]c(=O)[nH]c2c1)c1ccccc1)c1cccn(Cc2ccc(F)c(F)c2)c1=O

>  <target_entity>
PLK1 (human) (UniProt P53350)

>  <residual activity / %>
118

$$$$
>  <compound>
COc1ccc2c(c1)c1c3c(c4c5ccccc5n(C)c4c1n2CC(O)CN(C)C)C(=O)NC3=O (stereo not given)

>  <target_entity>
PLK1 (human) (UniProt P53350)

>  <residual activity / %>
99

$$$$
>  <compound>
CN(C)C/C=C/C(=O)Nc1cccc(C(=O)Nc2ccc(Nc3nccc(-c4cccnc4)n3)cc2)c1

>  <target_entity>
PLK1 (human) (UniProt P53350)

>  <residual activity / %>
91

$$$$
>  <compound>
Cc1cc(NC(=O)c2cccc(NC(=O)/C=C/CN(C)C)c2)ccc1Nc1nccc(-c2cccnc2)n1

>  <target_entity>
PLK1 (human) (UniProt P53350)

>  <residual activity / %>
98

$$$$
>  <compound>
NC(=O)c1cc(-c2ccnc(NC3CCCCC3)c2)nc(N2CCNCC2)c1

>  <target_entity>
PLK1 (human) (UniProt P53350)

>  <residual activity / %>
101

$$$$
>  <compound>
O=C(NCCCNc1nc(Nc2cccc(CN3CCOCC3)c2)ncc1C1CC1)C1CCC1

>  <target_entity>
PLK1 (human) (UniProt P53350)

>  <residual activity / %>
89

$$$$
>  <compound>
CC1=C(CO)C(=O)O[C@@H]([C@@H](C)[C@H]2CC[C@H]3[C@@H]4C[C@H]5O[C@]56[C@@H](O)C=CC(=O)[C@]6(C)C4CC[C@]23C)C1 (stereo not given in full)

>  <target_entity>
PLK1 (human) (UniProt P53350)

>  <residual activity / %>
105

$$$$
>  <compound>
O=C(Nc1ccccc1-c1cn2c(CN3CCNCC3)csc2n1)c1cnc2ccccc2n1

>  <target_entity>
PLK1 (human) (UniProt P53350)

>  <residual activity / %>
84

$$$$
>  <compound>
NC(=O)Nc1ccc2c(c1)/C(=C/c1cc(-c3cccnc3)c[nH]1)C(=O)N2

>  <target_entity>
PLK1 (human) (UniProt P53350)

>  <residual activity / %>
86

$$$$
>  <compound>
O=C(Nc1nc2cc(C(F)(F)F)cc(NC3CC3)n2n1)c1cccnc1

>  <target_entity>
PLK1 (human) (UniProt P53350)

>  <residual activity / %>
128

$$$$
>  <compound>
COc1ccc(N(C(=O)Nc2c(C)cccc2C)c2cc(Nc3ccc(N4CCN(C)CC4)cc3)ncn2)c(OC)c1

>  <target_entity>
PLK1 (human) (UniProt P53350)

>  <residual activity / %>
102

$$$$
>  <compound>
CN1CCN(CCOc2cc(OC3CCOCC3)c3c(Nc4c(Cl)ccc5c4OCO5)ncnc3c2)CC1

>  <target_entity>
PLK1 (human) (UniProt P53350)

>  <residual activity / %>
96

$$$$
>  <compound>
NC(=O)c1cc2c(-c3cccc(-c4ccccc4)c3)cnc(N)c2s1

>  <target_entity>
PLK1 (human) (UniProt P53350)

>  <residual activity / %>
108

$$$$
